Measured EC50 by item
System: THP-1 cells
Experiment: THP-1 host cell toxicity in the intramacrophage assay
Assay type: cell-based, human
Conditions: Homo sapiens, THP-1; DOS library compounds, dose response; read-out: THP1 pEC50 (converted)

// worked examples, EC50 included
SMI: COc1ccc(-c2ccccc2[C@H]2[C@@H](C#N)N(C(=O)NC(C)C)[C@H]2CO)cc1
OBSERVABLE: EC50
RESULT: > 50.1 µM

SMI: CC(C)NC(=O)N1[C@H](C#N)[C@H](c2ccc(-c3ccc(F)cc3)cc2)[C@@H]1CO
OBSERVABLE: EC50
RESULT: 10 µM

SMI: CCCNC(=O)N1[C@H](C#N)[C@H](c2ccc(-c3cccc(OC)c3)cc2)[C@@H]1CO
OBSERVABLE: EC50
RESULT: > 50.1 µM

query: Request - read-out EC50 | tested on THP-1 cells | compound CCCNC(=O)N1[C@H](C#N)[C@H](c2ccc(C#Cc3ccc(F)cc3)cc2)[C@@H]1CO
result: 15.8 µM

query: Request - read-out EC50 | tested on THP-1 cells | compound CCCNC(=O)N1[C@H](C#N)[C@H](c2ccc(-c3cccnc3)cc2)[C@@H]1CO
result: > 50.1 µM

query: Request - read-out EC50 | tested on THP-1 cells | compound CCCNC(=O)N1[C@H](C#N)[C@H](c2ccc(C3=CCCCC3)cc2)[C@@H]1CO
result: > 50.1 µM

query: Request - read-out EC50 | tested on THP-1 cells | compound CCCNC(=O)N1[C@H](C#N)[C@H](c2ccccc2-c2ccc(OC)cc2)[C@@H]1CO
result: > 50.1 µM

query: Request - read-out EC50 | tested on THP-1 cells | compound COc1ccc(-c2ccccc2[C@H]2[C@@H](C#N)N(C(=O)NC3CCCC3)[C@H]2CO)cc1
result: > 50.1 µM

query: Request - read-out EC50 | tested on THP-1 cells | compound CCCNC(=O)N1[C@H](C#N)[C@H](c2ccc(C#Cc3cccc(F)c3)cc2)[C@@H]1CO
result: > 50.1 µM

query: Request - read-out EC50 | tested on THP-1 cells | compound CCCNC(=O)N1[C@H](C#N)[C@H](c2ccccc2-c2ccc(C)cc2)[C@@H]1CO
result: > 50.1 µM

====

Tested on: THP-1 cells
Test: THP-1 host cell toxicity in the intramacrophage assay
Format: cell-based, human
Settings: Homo sapiens, THP-1; reference compound panel; mean (standard deviation); host cell toxicity; read-out: THP-1 (potency, pEC50) (converted)
Measured EC50 by item

// worked examples, EC50 included
COMPOUND: NC(=O)c1cnccn1 [Pyrazinamide]
EC50: > 34.7 µM

COMPOUND: N=C(N)c1ccc(/N=N/Nc2ccc(C(=N)N)cc2)cc1 [Diminazene]
EC50: > 34.7 µM

COMPOUND: CCCCCCCCCCCCCCCCOP(=O)([O-])OCC[N+](C)(C)C [Miltefosine]
EC50: > 34.7 µM

COMPOUND: Cn1c([N+](=O)[O-])cnc1COc1ccc(S(C)(=O)=O)cc1 [Fexinidazole sulfone]
EC50: > 34.7 µM

COMPOUND: CC(C)Cn1cnc2c(N)nc3ccccc3c21 [Imiquimod]
EC50: > 34.7 µM

# ---- query compound ----
query: Given CC1=CC(=O)c2ccccc2C1=O [Menadione] , state its recorded EC50.
result: 33.1 µM

====

Test system: eGFP expressing LdBOB amastigote-like cells in PMA differentiated THP-1 cells
Assay: Intramacrophage (intracellular, INMAC) assay
Format: cell-based, Leishmania donovani
Details: Leishmania donovani, THP-1; DOS library compounds, dose response; read-out: INMAC (intracellular) pEC50 (converted)
OBSERVABLE: EC50 (µM)
Give just the number in µM; leave the unit off.

// worked examples, EC50 included
MOLECULE: CCCNC(=O)N1[C@H](C#N)[C@H](c2ccc(C#Cc3ccc(F)cc3)cc2)[C@@H]1CO
U: µM
EC50: 2

MOLECULE: CCCNC(=O)N1[C@H](C#N)[C@@H](c2ccc(-c3cccc(OC)c3)cc2)[C@@H]1CO [BRD6650 RRS stereoisomer]
U: µM
EC50: 15.8

MOLECULE: CCCNC(=O)N1[C@H](C#N)[C@@H](c2ccccc2-c2ccc(OC)cc2)[C@@H]1CO [BRD2647 RRS stereoisomer]
U: µM
EC50: 39.8

MOLECULE: COc1ccc(-c2ccccc2[C@H]2[C@@H](C#N)N(C(=O)NC3CCCC3)[C@H]2CO)cc1
U: µM
EC50: 10

MOLECULE: CCCNC(=O)N1[C@H](C#N)[C@H](c2ccccc2-c2ccc(OC)cc2)[C@@H]1CO
U: µM
EC50: 6.31

query: Given CCCNC(=O)N1[C@H](C#N)[C@H](c2ccc(C3=CCCCC3)cc2)[C@@H]1CO , state its recorded EC50.
result: 2

query: Given CCCNC(=O)N1[C@H](C#N)[C@H](c2ccc(-c3cccnc3)cc2)[C@@H]1CO , state its recorded EC50.
result: 1.58

query: Given CCCNC(=O)N1[C@H](C#N)[C@@H](c2ccc(-c3cccc(OC)c3)cc2)[C@H]1CO [BRD6650 SRS stereoisomer] , state its recorded EC50.
result: 20

query: Given CCCNC(=O)N1[C@H](C#N)[C@H](c2ccccc2-c2ccc(C)cc2)[C@@H]1CO , state its recorded EC50.
result: 6.31

query: Given CCCNC(=O)N1[C@H](CO)[C@H](c2ccc(-c3cccc(OC)c3)cc2)[C@@H]1C#N [BRD6650 SRR stereoisomer] , state its recorded EC50.
result: 31.6

query: Given COc1ccc(-c2ccccc2[C@H]2[C@@H](C#N)N(C(=O)NC(C)C)[C@H]2CO)cc1 , state its recorded EC50.
result: 12.6

query: Given CCCNC(=O)N1[C@H](C#N)[C@H](c2ccc(C#Cc3cccc(F)c3)cc2)[C@@H]1CO , state its recorded EC50.
result: 3.98

query: Given CCCNC(=O)N1[C@H](C#N)[C@H](c2ccc(-c3cccc(OC)c3)cc2)[C@H]1CO [BRD6650 SSS stereoisomer] , state its recorded EC50.
result: 20

query: Given CCCNC(=O)N1[C@H](CO)[C@@H](c2ccc(-c3cccc(OC)c3)cc2)[C@@H]1C#N [BRD6650 SSR stereoisomer] , state its recorded EC50.
result: 10

query: Given CCCNC(=O)N1[C@@H](C#N)[C@@H](c2ccc(-c3cccc(OC)c3)cc2)[C@@H]1CO [BRD6650 RRR stereoisomer] , state its recorded EC50.
result: 50.1

query: Given CC(C)NC(=O)N1[C@H](C#N)[C@H](c2ccc(-c3ccc(F)cc3)cc2)[C@@H]1CO , state its recorded EC50.
result: 6.31

query: Given CCCNC(=O)N1[C@H](C#N)[C@H](c2ccc(-c3cccc(OC)c3)cc2)[C@@H]1CO , state its recorded EC50.
result: 2

====

Test system: HepG2 cells
Assay: HepG2 assay (mammalian counterscreen, resazurin)
Type: cell-based, human
Conditions: Homo sapiens, HepG2; reference compound panel; mean (standard deviation); 72 h; read-out: HepG2 (potency, pEC50) (converted)
Measured EC50 by item

COMPOUND: C[C@@H]1[C@H](O)[C@@H](C)/C=C/C=C/C=C/C=C/C=C/C=C/C=C/[C@H](O[C@@H]2O[C@H](C)[C@@H](O)[C@H](N)[C@@H]2O)C[C@@H]2O[C@](O)(C[C@@H](O)C[C@@H](O)[C@H](O)CC[C@@H](O)C[C@@H](O)CC(=O)O[C@H]1C)C[C@H](O)[C@H]2C(=O)O
EC50: > 50.1 µM
//
COMPOUND: CSc1ccc(OCc2ncc([N+](=O)[O-])n2C)cc1
EC50: > 50.1 µM
//
COMPOUND: NC[C@@H]1O[C@H](O[C@H]2[C@@H](O)[C@H](O[C@@H]3[C@@H](O)[C@H](N)C[C@H](N)[C@H]3O[C@H]3O[C@H](CO)[C@@H](O)[C@H](O)[C@H]3N)O[C@@H]2CO)[C@H](N)[C@@H](O)[C@@H]1O
EC50: > 50.1 µM
//
COMPOUND: CCN(CC)Cc1cc(Nc2ccnc3cc(Cl)ccc23)ccc1O
EC50: 25.7 µM
//
COMPOUND: Cn1c([N+](=O)[O-])cnc1COc1ccc(S(C)(=O)=O)cc1
EC50: > 50.1 µM
//
COMPOUND: CCCCCCCCCCCCCCCCOP(=O)([O-])OCC[N+](C)(C)C
EC50: > 50.1 µM
//
COMPOUND: CC[C@@H]([C@H](C)O)n1ncn(-c2ccc(N3CCN(c4ccc(OC[C@@H]5CO[C@@](Cn6cncn6)(c6ccc(F)cc6F)C5)cc4)CC3)cc2)c1=O
EC50: 8.51 µM
//
COMPOUND: O=c1cc(-c2ccc(O)c(O)c2)oc2cc(O)cc(O)c12
EC50: 24.5 µM
//
COMPOUND: CC(C)(C)NC(=O)[C@@H]1CN(Cc2cccnc2)CCN1C[C@@H](O)C[C@@H](Cc1ccccc1)C(=O)N[C@H]1c2ccccc2C[C@H]1O
EC50: > 50.1 µM
//
COMPOUND: OC(c1ccc(Cl)cc1)(c1cncnc1)c1ccccc1Cl (stereo not drawn)
EC50: > 50.1 µM

query: Given CCN(CC)C(=S)SSC(=S)N(CC)CC , state its recorded EC50.
result: 45.7 µM

query: Given CC1=CC(=O)c2ccccc2C1=O , state its recorded EC50.
result: 3.47 µM
